Below is a list of entries, each paired with its recorded GI50 value.
- System: COLO 205 colon
- METHOD: NCI tumour cell line growth inhibition, 48 h

Solved cases below.
molecule=O=C(Nc1cnc(C(F)(F)F)cn1)c1cc(Cl)ccc1O val="1540 nM"
molecule=Cc1cc(NC(=O)c2cnc(N3CCN(CCOCCOCCOCCOCCC(=O)N[C@H](C(=O)N4C[C@H](O)C[C@H]4C(=O)N[C@@H](C)c4ccc(-c5scnc5C)cc4)C(C)(C)C)CC3)cn2)c2ncccc2c1 val="5110 nM"

Input: For the molecule `COc1ccc2c(c1)/C(=C\c1c[nH]c3ccc(OC)cc13)C(=O)N2` , report GI50.
Output: 2890 nM

Input: Specify measured GI50 for `CCC[CH2][Sn]([CH2]CCC)([O]C(=O)/C=C/c1ccccc1F)[O]C(=O)/C=C/c1ccccc1F` .
Output: 907 nM

---

- System: 786-0 renal
- METHOD: NCI tumour cell line growth inhibition, 48 h
RECORDED METRIC: TGI (µM)
Use µM as the unit, but write only the number.

Observe how each entry below is paired with its result.
compound="Cc1cc(O)ccc1C1(c2ccc(F)cc2)OC(=O)c2ccccc21 (centres undefined)" recorded_metric=TGI val=22.2
compound=COc1ccc2c(c1)/C(=C\c1c[nH]c3ccc(OC)cc13)C(=O)N2 recorded_metric=TGI val=17.6
compound="C/C=C/[C@H]1O[C@@](O)([C@@H](C)[C@H](O)[C@H](C)[C@H]2OC(=O)/C(OC)=C/C(C)=C/[C@@H](C)[C@@H](O)[C@@H](CC)[C@@H](O)[C@H](C)C/C(C)=C/C=C/[C@@H]2OC)C[C@H](OC2CC(O)C(OC(N)=O)C(C)O2)[C@@H]1C (some centres undefined)" recorded_metric=TGI val=15.7

Please look at the following compound next.
Input: Specify TGI for `Cc1cccc2c(Nc3ccc(NS(C)(=O)=O)cc3)c3ccc([N+](=O)[O-])cc3nc12` and stop.
Output: 4.45

---

- Tested on: HCT-15 colon
- METHOD: NCI tumour cell line growth inhibition, 48 h
TGI for assorted compounds
Give the number; µM is assumed, so skip it.

Record excerpt, results attached:
molecule=COC1=CC(=O)c2c(O)c3c(c(O)c2C1=O)C[C@](C)(O)C[C@@H]3O val=15.8
molecule=COc1cc2c(cc1-c1coc3cc(OCC=C(C)C)ccc3c1=O)OCO2 val=32.8
molecule=CC/C=C\C/C=C/C=C1/C(=O)C=C[C@@H]1C/C=C\CCCC(=O)OC val=7.89

Alright, here's another compound for you.
Input: Please list TGI recorded for the compound `Cc1ccc(Sc2oc(-c3ccc(C)cc3)nc2[P+](c2ccccc2)(c2ccccc2)c2ccccc2)cc1`
Output: 1.26

---

- System: HT29 colon
- METHOD: NCI tumour cell line growth inhibition, 48 h
# maps each entry to its TGI
Use µM as the unit, but write only the number.

Example cases with answers are listed next.
molecule=COc1cccc(CC(C)=C(c2ccc(OCCCN(C)C)cc2)c2ccc(OCCCN(C)C)cc2)c1 recorded_metric=TGI val=0.912
molecule=N=C(N)SCCCN recorded_metric=TGI val=62.3

Input: Item `Cc1ccc(S(=O)(=O)c2ccc([N+](=O)[O-])o2)cc1` : provide TGI
Output: 3.2

---

- Tested on: KM12 colon
- METHOD: NCI tumour cell line growth inhibition, 48 h
RECORDED METRIC: TGI

Please review the following examples before continuing.
compound="CC1(C)CCCCCCCCCC(C)(CCCCCCCCCCCCO)C1=O (stereo not given)" tested_system="KM12 colon" val="31.1 µM"
compound=Cc1ccc(N=C2SC(c3ccc(C)cc3)(c3ccc(C)cc3)c3ccccc32)cc1 tested_system="KM12 colon" val="> 100 µM"
compound="CCOC(=O)C1=C(C)N2C(=NC3=C(CCC/C3=C\\c3ccc(Cl)cc3)C2c2ccc(Cl)cc2)S1 (stereo not given)" tested_system="KM12 colon" val="3.68 µM"
compound=COc1cc(/C=C/[N+](=O)[O-])cc(OC)c1OC tested_system="KM12 colon" val="12.3 µM"
compound="CN(C)C(=O)C(F)(F)C(c1ccc(Br)cc1)C1C(=O)N(C)C(=O)N(C)C1=O (stereo not given)" tested_system="KM12 colon" val="> 100 µM"

Input: Retrieve TGI measured for `NS(=O)(=O)c1cccc(-c2ccc3c(NC(=O)C4CC4)n[nH]c3c2)c1` and print it.
Output: > 25 µM

Input: Output measured TGI for this item: `COC(=O)/C=C/c1cc(OC)c2oc(-c3ccc(OC)c(OC)c3)c(C(=O)OC)c2c1`
Output: > 100 µM

Input: Identify the reported TGI for the following entry. `N#CC(C#N)=C(N)/C(C#N)=C/c1ccc2[nH]ccc2c1`
Output: > 100 µM

Input: Specify TGI for N#CC12C(=O)N3C(=NC(c4ccccc4)NC3c3ccccc3)C1(C#N)C(c1ccccc1)NC1=C2CCCC1 (stereo not given) and stop.
Output: > 100 µM

Input: Note down TGI recorded for `O=c1c(O)cccn1CCCN(CCCn1cccc(O)c1=O)CCn1cccc(O)c1=O`
Output: > 100 µM
